Assay: The drug is tested on Z-021 corresponding to metagenome with ENA study accession number: PRJEB37062 and ENA sample accession number: ERS12561820 for biotransformation under anaerobic condition. The drug concentrations were measured over 9 timepoints collected between 0 and 24 hours of incubation by liquid-chromatography-coupled mass spectrometry (LC–MS); note: call rule not given here
Settings: 2 µM
property: Bacterial Biotransformation

Below: 5 molecules and their reported Bacterial Biotransformation.
CCCN(CCC)CCc1cccc2c1CC(=O)N2 | Compound NOT metabolized
CC[C@H](C)C(=O)O[C@H]1CCC=C2C=C[C@H](C)[C@H](CC[C@@H]3C[C@@H](O)CC(=O)O3)[C@H]21 | Compound NOT metabolized
C[C@@H](c1ncncc1F)[C@](O)(Cn1cncn1)c1ccc(F)cc1F | Compound NOT metabolized
CCCC(C)(COC(N)=O)COC(=O)NC(C)C (stereo not given) | Compound NOT metabolized
O=C(NC(Cc1cc(=O)[nH]c2ccccc12)C(=O)O)c1ccc(Cl)cc1 (stereo not given) [REBAMIPIDE] | Compound metabolized

# Bacterial Biotransformation lookup, item CC(=O)OCC(=O)[C@@]1(OC(C)=O)[C@@H](C)C[C@H]2[C@@H]3C[C@H](F)C4=CC(=O)C=C[C@]4(C)[C@@]3(F)[C@@H](O)C[C@@]21C [DIFLORASONE DIACETATE]
Compound metabolized

# Bacterial Biotransformation lookup, item C#C[C@]1(OC(C)=O)CC[C@H]2[C@@H]3CCC4=C/C(=N/O)CC[C@@H]4[C@H]3CC[C@@]21CC [NORGESTIMATE]
Compound NOT metabolized

# Bacterial Biotransformation lookup, item COc1ccnc(C[S+]([O-])c2nc3ccc(OC(F)F)cc3[nH]2)c1OC (stereo not given)
Compound metabolized

# Bacterial Biotransformation lookup, item CN1CCC(OC(c2ccccc2)c2ccccc2)CC1
Compound metabolized

# Bacterial Biotransformation lookup, item C=CC[C@@H]1/C=C(\C)C[C@H](C)C[C@H](OC)[C@H]2O[C@@](O)(C(=O)C(=O)N3CCCC[C@H]3C(=O)O[C@H](/C(C)=C/[C@@H]3CC[C@@H](O)[C@H](OC)C3)[C@H](C)[C@@H](O)CC1=O)[C@H](C)C[C@@H]2OC.O
Compound NOT metabolized

# Bacterial Biotransformation lookup, item O=C(O)CCC(=O)O.O=C(O[C@H]1CN2CCC1CC2)N1CCc2ccccc2[C@@H]1c1ccccc1 [SOLIFENACIN SUCCINATE]
Compound metabolized

# Bacterial Biotransformation lookup, item CCOc1ccccc1OCCN[C@H](C)Cc1ccc(OC)c(S(N)(=O)=O)c1.Cl [TAMSULOSIN HYDROCHLORIDE]
Compound metabolized

# Bacterial Biotransformation lookup, item CC(C)(C)N.CCC[C@H](N[C@@H](C)C(=O)N1[C@H](C(=O)O)C[C@@H]2CCCC[C@@H]21)C(=O)OCC
Compound NOT metabolized

# Bacterial Biotransformation lookup, item Cc1cc(C)cc(OCC2CNC(=O)O2)c1 (stereo not given)
Compound NOT metabolized

# Bacterial Biotransformation lookup, item CC(C)[C@H]1CC[C@H](C(=O)N[C@H](Cc2ccccc2)C(=O)O)CC1 [NATEGLINIDE]
Compound metabolized
